Where do the numbers come from? From PubChem BioAssay.

assay: S. cerevisiae growth modulation with rapamycin, primary screen, strain BY4716, OD600, 96 h (AID 1091); conditions: higher = more signal, called active from +8 up or from −8 down; also: test concentration not given here
Reported Endpoint: z-score
Form field (numeric): enter value without unit.

Record summary for CC(CCN1CCc2nc(-c3ccccc3)c(-c3ccccc3)cc2C1)=NO[C@@H](C)c1cn([C@H](CO)Cc2ccccc2)nn1 : reported z-score = -4.45

Record summary for COCCCNC(=O)[C@@]1(Sc2ccc(C)cc2)CC(=O)N(Cc2ccccc2)[C@@H]1c1ccc(CO)cc1I : reported z-score = 0.999

Record summary for O=C1[C@H]2[C@H]3[C@H](O)[C@H](O)CC(=NOCc4ccccc4)[C@H]3CC[C@H]2C(=O)N1C[C@@H]1CCCO1 : reported z-score = -0.351

Record summary for COc1ccc(COC(=O)NN=C2C[C@@H](O)[C@@H](O)[C@@H]3[C@@H]4C(=O)N(Cc5ccc6c(c5)OCO6)C(=O)[C@@H]4CC[C@@H]23)cc1 : reported z-score = -0.731

Record summary for O=C1C[C@@H](O)[C@@H](O)[C@@H]2[C@@H]3C(=O)N(C4CCCCC4)C(=O)[C@@H]3CC[C@H]12 : reported z-score = 0.0415

Record summary for CCN1C(=O)[C@H]2[C@H]3[C@H](O)[C@H](O)CC(=NO[C@@H]4O[C@H](CO)[C@@H](O)[C@H](O)[C@H]4O)[C@@H]3CC[C@H]2C1=O : reported z-score = -0.849
